# tested.system: T1, mouse programmed cell death protein 1 Fc fusion protein (mPD-1-Fc), mPD-1 C60S (aa 25-167) (Mus musculus, UniProt Q02242, stabilised)
# T1 construct: not cleaved; source: Expi293F, purified (Protein A, SEC; dimeric fraction); not shown: Fc (human), C-terminal, kept
# test.method.notes: SPR; Carterra LSA; Fab from the ammonium sulfate precipitate of the culture supernatant immobilised on a NiHC200M chip; hPD-1 (1-1024 nM) or mPD-1-Fc (4-1024 nM) as analyte, fourfold dilution series, no regeneration; HBS-EP pH 7.4, 25 °C; medians over the spots of a construct, KD = koff/kon
# conditions.used: one partner purified
// reported kon for each item listed
Give the number; M⁻¹ s⁻¹ is assumed, so skip it.

Some solved cases for reference:
binder: toripalimab Fab L.L101Q (Fab, V domains shown, as the heavy chain of Sm3; light chain of Sm3 with this change; numbers count from the chain's first residue; source: Brevibacillus, culture supernatant (ammonium sulfate precipitate); not shown: 6xHis, C-terminal, kept; 6xHN, C-terminal, kept) VH: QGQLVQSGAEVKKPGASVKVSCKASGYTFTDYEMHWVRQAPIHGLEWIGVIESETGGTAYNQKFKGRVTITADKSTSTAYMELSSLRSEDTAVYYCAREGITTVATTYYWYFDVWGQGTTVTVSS VL: DVVMTQSPLSLPVTLGQPASISCRSSQSIVHSNGNTYLEWYLQKPGQSPQLLIYKVSNRFSGVPDRFSGSGSGTDFTLKISRVEAEDVGVYYCFQGSHVPQTFGQGTKLEIK
quantitative.result: 54000
--
binder: toripalimab Fab H.E33A (Fab, V domains shown, heavy chain of Sm3 with this change; numbers count from the chain's first residue; as the light chain of Sm3; source: Brevibacillus, culture supernatant (ammonium sulfate precipitate); not shown: 6xHis, C-terminal, kept; 6xHN, C-terminal, kept) VH: QGQLVQSGAEVKKPGASVKVSCKASGYTFTDYAMHWVRQAPIHGLEWIGVIESETGGTAYNQKFKGRVTITADKSTSTAYMELSSLRSEDTAVYYCAREGITTVATTYYWYFDVWGQGTTVTVSS VL: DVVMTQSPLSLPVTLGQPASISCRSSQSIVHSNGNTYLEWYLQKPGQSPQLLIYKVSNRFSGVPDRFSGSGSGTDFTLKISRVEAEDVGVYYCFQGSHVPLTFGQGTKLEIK
quantitative.result: 36200
--
binder: toripalimab Fab H.D31A (Fab, V domains shown, heavy chain of Sm3 with this change; numbers count from the chain's first residue; as the light chain of Sm3; source: Brevibacillus, culture supernatant (ammonium sulfate precipitate); not shown: 6xHis, C-terminal, kept; 6xHN, C-terminal, kept) VH: QGQLVQSGAEVKKPGASVKVSCKASGYTFTAYEMHWVRQAPIHGLEWIGVIESETGGTAYNQKFKGRVTITADKSTSTAYMELSSLRSEDTAVYYCAREGITTVATTYYWYFDVWGQGTTVTVSS VL: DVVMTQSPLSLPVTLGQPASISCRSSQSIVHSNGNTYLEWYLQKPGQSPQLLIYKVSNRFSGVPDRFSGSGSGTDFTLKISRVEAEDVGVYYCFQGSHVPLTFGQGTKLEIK
quantitative.result: 44700
--
binder: toripalimab Fab L.R59A (Fab, V domains shown, as the heavy chain of Sm3; light chain of Sm3 with this change; numbers count from the chain's first residue; source: Brevibacillus, culture supernatant (ammonium sulfate precipitate); not shown: 6xHis, C-terminal, kept; 6xHN, C-terminal, kept) VH: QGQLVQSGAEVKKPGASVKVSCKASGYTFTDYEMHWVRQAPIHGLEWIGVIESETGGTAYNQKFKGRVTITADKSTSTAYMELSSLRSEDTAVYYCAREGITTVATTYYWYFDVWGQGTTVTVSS VL: DVVMTQSPLSLPVTLGQPASISCRSSQSIVHSNGNTYLEWYLQKPGQSPQLLIYKVSNAFSGVPDRFSGSGSGTDFTLKISRVEAEDVGVYYCFQGSHVPLTFGQGTKLEIK
quantitative.result: 42400
--
binder: toripalimab Fab L.L38A (Fab, V domains shown, as the heavy chain of Sm3; light chain of Sm3 with this change; numbers count from the chain's first residue; source: Brevibacillus, culture supernatant (ammonium sulfate precipitate); not shown: 6xHis, C-terminal, kept; 6xHN, C-terminal, kept) VH: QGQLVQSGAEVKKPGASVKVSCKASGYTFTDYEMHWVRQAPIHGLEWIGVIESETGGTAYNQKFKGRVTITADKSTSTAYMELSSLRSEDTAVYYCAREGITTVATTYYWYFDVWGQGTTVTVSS VL: DVVMTQSPLSLPVTLGQPASISCRSSQSIVHSNGNTYAEWYLQKPGQSPQLLIYKVSNRFSGVPDRFSGSGSGTDFTLKISRVEAEDVGVYYCFQGSHVPLTFGQGTKLEIK
quantitative.result: 44000

Attention now shifts to the item below.
Return reported kon; argument: toripalimab Fab H.G57A (Fab, V domains shown, heavy chain of Sm3 with this change; numbers count from the chain's first residue; as the light chain of Sm3; source: Brevibacillus, culture supernatant (ammonium sulfate precipitate); not shown: 6xHis, C-terminal, kept; 6xHN, C-terminal, kept) VH: QGQLVQSGAEVKKPGASVKVSCKASGYTFTDYEMHWVRQAPIHGLEWIGVIESETGATAYNQKFKGRVTITADKSTSTAYMELSSLRSEDTAVYYCAREGITTVATTYYWYFDVWGQGTTVTVSS VL: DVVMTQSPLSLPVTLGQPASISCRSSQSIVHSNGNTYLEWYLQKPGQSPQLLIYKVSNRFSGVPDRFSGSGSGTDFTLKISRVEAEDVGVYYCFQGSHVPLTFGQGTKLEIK 50100

These data points were gathered from paper PMC10663500.
